- Assay procedure: NCI Yeast Anticancer Drug Screen. Data for the rad50 strain (AID 155);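 further: 0% = growth of vehicle-only cultures of the same strain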
- Study conditions: S. cerevisiae rad50 strain growth inhibition; at 50.0 µM (retest, dose inferred, filed as 5.0)
The panel holds about 79,000 compounds, 15% with a hit somewhere; the sample as a whole holds those more often. Calls of active or inactive are those of the source. No stated cut-off is given here; in the data, active means growth inhibition above about 70%; inactive means the rest.
Pick one and only one: yes for active, no for inactive

Any idea what this test logged for Clc1cc(Cl)c(NN=C(c2ccccc2)c2ccccc2)c(Cl)c1 ?
yes

Any idea what this test logged for Cc1c2c(c(O)c3c(O)cccc13)C(=O)C1(O)C(=O)C(C(N)=O)C(O)C(N(C)C)C1C2 (stereo unspecified) ?
yes

Any idea what this test logged for COC/C(Br)=C\SC#N (tested in a mixture with another compound) ?
no

Any idea what this test logged for COc1ccc(/C=c2\sc3nnc(CCC(=O)Nc4cccc(C(F)(F)F)c4)n3c2=O)cc1 ?
no

Any idea what this test logged for CCN(CC)CCOC(=O)c1ccc(N=Nc2cc(Cl)c(C)cc2O)cc1 ?
yes

Any idea what this test logged for CC(C)=Cc1cc2c(cc1O)CCC1C2CC[C@@]2(C)C1CC[C@@H]2O (stereo partly specified) ?
no

Any idea what this test logged for CSC(=S)N/N=C(\C)c1nccnc1C ?
yes

Any idea what this test logged for CN(C)N=Nc1ccc(Cl)c2ncccc12 ?
no

Any idea what this test logged for O=[N+]([O-])c1ccc(NCc2ccccc2)c([N+](=O)[O-])c1 ?
no

Any idea what this test logged for CCOC(=O)CCc1ccc(OC)c(OC)c1 ?
no

Any idea what this test logged for CCOC(C)c1ccccc1 (stereo unspecified) ?
yes

###

- Assay procedure: NCI Yeast Anticancer Drug Screen. Data for the rad50 strain (AID 155);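 further: 0% = growth of vehicle-only cultures of the same strain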
- Study conditions: S. cerevisiae rad50 strain growth inhibition; at 50.0 µM (retest, dose inferred, filed as 5.0); active compounds read high
This is part of a sample that, as a whole, favours compounds with a hit. Of some 79,000 tested, about 15% had one in any assay.
Classify on growth inhibition using one: < 50%; two: ≥ 50% and < 90%; three: ≥ 90%

Dear colleague, I would appreciate it if you could identify the bin for CCCCCCCCC(=O)NCCN(CCN)C(=O)CCCCCCCC and reply at your convenience.
three

Dear colleague, I would appreciate it if you could identify the bin for C[C@H](CCC(=O)O)[C@H]1CC[C@H]2[C@@H]3[C@@H](O)C[C@@H]4C[C@H](O)CC[C@]4(C)[C@H]3CC[C@]12C and reply at your convenience.
three

Dear colleague, I would appreciate it if you could identify the bin for CCC[CH2][Sn]([CH2]CCC)([O]C(=O)c1cc(F)cc(F)c1)[O]C(=O)c1cc(F)cc(F)c1 and reply at your convenience.
two

Dear colleague, I would appreciate it if you could identify the bin for CC(=O)OC1CCC2(C)C3CCC4(C)C(C(C)CCCC(C)C)CCC4C3CCC23OC13C (stereo not given) and reply at your convenience.
one

Dear colleague, I would appreciate it if you could identify the bin for OCC(CO)C1c2cccc3ccc4cccc1c4c23 and reply at your convenience.
one

###

- Assay procedure: NCI Yeast Anticancer Drug Screen. Data for the mec2-1 strain (AID 157)
- Study conditions: S. cerevisiae mec2-1 strain, at 50.0 µM (retest, dose inferred, filed as 5.0), active compounds read high
About 79,000 compounds went through this panel and 15% of them were active in at least one assay; those are over-represented in the sample as a whole.
Task for the reader: assign each of the following compounds its reported growth inhibition.
Numeric only. Scale: %

// returns reported growth inhibition for input c1ccc(C[n+]2cccc(-c3cc4ccccc4[nH]3)c2)cc1
-42

// returns reported growth inhibition for input COC(=O)CCC(NC(=S)N/N=C/c1ccccn1)C(=O)OC (stereo not given)
47

// returns reported growth inhibition for input O=c1[nH]c2ccccc2nc1CBr
99

// returns reported growth inhibition for input COc1ccc([C@H]2c3cc4c(cc3OC(O)(CO)[C@H]2C(=O)O)OCO4)c(OC)c1 (stereo not given in full) (tested in a mixture with another compound)
48

// returns reported growth inhibition for input N=C(/C(=C/c1ccccc1)c1ccccc1)c1ccccc1
76

// returns reported growth inhibition for input CCOC(=O)C1SC(=Nc2ccc(Cl)cc2)N=C1C (stereo not given)
37

// returns reported growth inhibition for input O=[N+]([O-])/C(C(Cl)=C(Cl)Cl)=C(/Nc1ccccc1)Sc1ccccc1
99

// returns reported growth inhibition for input NC1CCCCC1N.O=S(=O)([O-])CCCN1CCN(CCO)CC1.O=S(=O)([O-])CCCN1CCN(CCO)CC1.[Pt+4]
99

// returns reported growth inhibition for input CCc1cccc(C(C)(C)C)c1NC(=S)N/C=C(\c1ccccc1)S(=O)Cc1ccccc1 (stereo not given)
70

// returns reported growth inhibition for input Clc1ccc2oc(N3CCCCC3)nc2c1
-3

// returns reported growth inhibition for input O=C(NCCCCCCNC(=O)n1cc(F)c(=O)[nH]c1=O)NCCCOCCOCCOCCOCCOCCOCCOCCOCCOCCOCCOCCOCCOCCOCCOCCOCCOCCOCCOCCOCCOCCCNC(=O)C(O)C(O)C(O)C(O)CO (stereo not given)
60

// returns reported growth inhibition for input C/C(=C/c1ccccc1)C(=O)C1C(c2ccccc2)CC(O)C(C)C1c1ccccc1 (stereo not given)
81

// returns reported growth inhibition for input COC1C=COC2(C)Oc3c(C)c(O)c4c(O)c(c(C5SCCS5)c(O)c4c3C2=O)NC(=O)C(C)=C/C=C\C(C)C2OC(C)(C)OC(C2C)C(C)C(OC(C)=O)C1C (stereo not given)
93

// returns reported growth inhibition for input O=[N+]([O-])OC1CCCC(O[N+](=O)[O-])c2c1n([O-])c1ccccc1[n+]2=O (stereo not given)
86

// returns reported growth inhibition for input NNc1c(Cl)c(F)c(Cl)c(F)c1Cl
17

// returns reported growth inhibition for input COc1ccccc1/C=C1\S/C(=N/Nc2nc(C)c(C(C)=O)s2)NC1=O
32

// returns reported growth inhibition for input O=C1c2cc3c(cc2CC1Br)CCC3 (stereo not given)
100

// returns reported growth inhibition for input CCOP(=O)(CCCOc1cc(Cl)c(Cl)cc1Cl)OCC
99

// returns reported growth inhibition for input OCCCNc1nc2ccc(Cl)cc2c2ccccc12
2

// returns reported growth inhibition for input COC(OC)(c1ccccc1)C(I)I
100

###

- Assay procedure: NCI Yeast Anticancer Drug Screen. Data for the sgs1 mgt1 strain (AID 161);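 further: 0% = growth of cultures given vehicle only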
- Study conditions: S. cerevisiae sgs1 mgt1 strain, at 5.0 µM (retest, dose inferred, filed as 0.5)
About 79,000 compounds went through this panel and 15% of them were active in at least one assay; those are over-represented in the sample as a whole. Calls of active or inactive are those of the source. No stated cut-off is given here; in the data, active means growth inhibition above about 70%; inactive means the rest.
Pick one and only one: active, inactive

Any idea what this test logged for CC(=O)c1c(CO[N+](=O)[O-])n([O-])c2ccccc2[n+]1=O ?
inactive

Any idea what this test logged for CCOC(=O)C(Br)C(Br)c1cccc([N+](=O)[O-])c1 (stereo unspecified) ?
active

Any idea what this test logged for COc1ccc(CN=C(N)N)c2ccccc12 ?
inactive

Any idea what this test logged for Cc1ccccc1[P+](C)(c1ccccc1C)c1ccccc1C ?
inactive

Any idea what this test logged for CC1=C(C(=O)Nc2ccccc2)C(c2cccc([N+](=O)[O-])c2)C(C(=O)Nc2ccccc2)=C(C)N1 ?
inactive

Any idea what this test logged for O=C1CCCc2cc3c(nc21)C(=O)CCC3 ?
inactive

###

- Assay procedure: NCI Yeast Anticancer Drug Screen. Data for the sgs1 mgt1 strain (AID 161);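 further: 0% = growth of cultures given vehicle only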
- Study conditions: S. cerevisiae sgs1 mgt1 strain, at 50.0 µM
The panel holds about 79,000 compounds, 15% with a hit somewhere; the sample as a whole holds those more often. Activity calls are given as the source filed them. No stated cut-off is given here; in the data, active means growth inhibition above about 70%; inactive means the rest.
Pick one and only one: label 1 (active), label 0 (inactive)

Any idea what this test logged for O=C(O)CCC(=O)c1ccc(C2CCCC2)c2ccccc12 ?
label 0

Any idea what this test logged for O=C(CC(c1ccccc1Cl)C(C(=O)O)c1ccccc1)c1ccccc1 (configuration not stated) ?
label 1

Any idea what this test logged for CCCc1cc(=O)oc2c3c(c4c(c12)OC(C)(C)C=C4)O[C@@H](C)[C@H](C)[C@H]3O ?
label 0

Any idea what this test logged for CCC[CH2][Sn]([CH2]CCC)([O]C(=O)c1c(F)cccc1F)[O]C(=O)c1c(F)cccc1F ?
label 1

Any idea what this test logged for CC(=O)c1c(C)n(C)c2c1nnc1ccccc12 ?
label 0

Any idea what this test logged for Cc1ccc(S(=O)(=O)N2CCN3C(=O)c4ccccc4C32c2ccc(F)cc2)cc1 (configuration not stated) ?
label 0

Any idea what this test logged for CCCCNCCCCCCCCCCCl ?
label 1

Any idea what this test logged for O=C(O)CSc1nc(-c2ccccc2)c(-c2ccccc2)n1-c1ccccn1 ?
label 1

Any idea what this test logged for O=C(O)C(Br)C(Br)c1ccccc1[N+](=O)[O-] (configuration not stated) ?
label 1

Any idea what this test logged for c1ccc(N/N=C(/CC/C(=N\Nc2ccccc2)c2ccccc2)c2ccccc2)cc1 ?
label 1

Any idea what this test logged for O=C(O)c1c2c(cc3c1CC1(Cc4cc5c(cc4C1=O)CCC5)C3)CCC2 (configuration not stated) ?
label 1

Any idea what this test logged for CSC(=S)NNC(C)c1nccc2ccccc12 (configuration not stated) ?
label 1

Any idea what this test logged for c1cc[c]([Sn]([NH]c2ncnc3[nH]cnc23)([NH]c2ncnc3[nH]cnc23)[c]2ccccc2)cc1 ?
label 0

Any idea what this test logged for O=[N+]([O-])c1ccc(Cl)cc1C=NC12CC3CC(CC(C3)C1)C2 ?
label 0

Any idea what this test logged for CCCCCCCCOc1ccc(/C=C/C(C)=N/NC(N)=NC)cc1OC ?
label 0

Any idea what this test logged for O=C1CCCCCC1Cc1cc(O)c(CC2CCCCCC2=O)cc1O (configuration not stated) ?
label 1

Any idea what this test logged for CCOC(=O)c1c(-c2ccccc2)csc1NC(=O)CBr ?
label 0

Any idea what this test logged for COc1ccc(C2C3=C(CCC(CN(C)C)C3=O)OC3=C2C(=O)C(CN(C)C)CC3)cc1 (configuration not stated) ?
label 0

Any idea what this test logged for Cc1ccc2c(ccc3c[n+]4c5ccccc5ccc4n32)c1 ?
label 1

Any idea what this test logged for CCCCN(C)C(=S)N/N=C(\C)c1ccccn1 ?
label 1

Any idea what this test logged for CN(C)c1c([N+](=O)[O-])cc(N2C(=O)C=CC2=O)cc1[N+](=O)[O-] ?
label 1

Any idea what this test logged for CNC(=O)N1N[C@H](c2ccccc2)[C@@H]1c1ccccc1 ?
label 0
